system: Saccharomyces cerevisiae; assay: protein stability index of tFT-peptide fusion (C-terminal peptide) (PSI (0-1 scale)); higher = more stable (slower turnover); settings: genetic background: wild type; temperature: 30 C;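 also: PSI is a weighted mean of sequencing reads over stability bins, variants kept only with over 10 reads, mCherry proximal and sfGFP distal, peptide attached via GGGS linker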
Binning scheme for protein stability index: class 0 = under 0.6, class 1 = from 0.6 up to 0.7, class 2 = 0.7 and over

EMSIISVLRVIS : class 0
SRPPSPPLCHPA : class 2
LSPDSLGVLVEY : class 1
DPAKRTLTRSRR : class 1
AQRKSVLSPDLC : class 1
EGLSYSFGDCPM : class 2
PEGCQDGASPAE : class 2
RGRRFMRGEVGG : class 1
RLYPVPARPSPS : class 1
AWPGPKMCWVVK : class 1
PPPLVPPPPSSL : class 2
SPSFSLLFPFLL : class 1
TCVVCSCVLQCV : class 0
FLAFLEPRVCCA : class 0
FLCWLSFIPLLS : class 0
SPSPLSLRLPPP : class 1
LLLALPSRPPPS : class 1
NLDFGYAERWQG : class 2
VVLVGVAVCRLG : class 0
FNTRDTFLYTCR : class 2
PRPRLPVLPSPS : class 1
GFFFLFFVSAFI : class 0
PIGLCLYNSPRF : class 1
FGWEGGEEMAGG : class 2
ASSTSSPPPLPP : class 1
PPHPLLSPPPFP : class 2
YHPPLDHHQCTE : class 1
LWYVQILNIVLN : class 0
APPRPPPRPHPP : class 0
